Source of measurements: patent US11214614B2

Entries and their Hu LTBP1-proTGFβ1 Koff values follow.
target: huLTBP1 proTGFβ1 (Homo sapiens, UniProt P01137+Q14766); experiment: Octet (BLI) binding, IgG captured on AHC tips, antigen at 100 nM; settings: Table 9; cycle 3; IgG1-agly; 5-minute dissociation
Sequence (P01137 30-390): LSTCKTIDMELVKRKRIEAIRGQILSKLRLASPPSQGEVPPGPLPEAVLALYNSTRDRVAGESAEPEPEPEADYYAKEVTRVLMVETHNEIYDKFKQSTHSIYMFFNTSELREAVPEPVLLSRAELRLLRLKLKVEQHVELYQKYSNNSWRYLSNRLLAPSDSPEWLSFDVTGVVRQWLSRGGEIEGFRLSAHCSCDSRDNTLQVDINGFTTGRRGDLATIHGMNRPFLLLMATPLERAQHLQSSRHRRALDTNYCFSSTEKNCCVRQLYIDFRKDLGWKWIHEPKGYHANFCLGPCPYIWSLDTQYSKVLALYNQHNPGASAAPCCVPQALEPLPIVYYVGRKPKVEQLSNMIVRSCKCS
Sequence (Q14766 347-1721 limits assumed): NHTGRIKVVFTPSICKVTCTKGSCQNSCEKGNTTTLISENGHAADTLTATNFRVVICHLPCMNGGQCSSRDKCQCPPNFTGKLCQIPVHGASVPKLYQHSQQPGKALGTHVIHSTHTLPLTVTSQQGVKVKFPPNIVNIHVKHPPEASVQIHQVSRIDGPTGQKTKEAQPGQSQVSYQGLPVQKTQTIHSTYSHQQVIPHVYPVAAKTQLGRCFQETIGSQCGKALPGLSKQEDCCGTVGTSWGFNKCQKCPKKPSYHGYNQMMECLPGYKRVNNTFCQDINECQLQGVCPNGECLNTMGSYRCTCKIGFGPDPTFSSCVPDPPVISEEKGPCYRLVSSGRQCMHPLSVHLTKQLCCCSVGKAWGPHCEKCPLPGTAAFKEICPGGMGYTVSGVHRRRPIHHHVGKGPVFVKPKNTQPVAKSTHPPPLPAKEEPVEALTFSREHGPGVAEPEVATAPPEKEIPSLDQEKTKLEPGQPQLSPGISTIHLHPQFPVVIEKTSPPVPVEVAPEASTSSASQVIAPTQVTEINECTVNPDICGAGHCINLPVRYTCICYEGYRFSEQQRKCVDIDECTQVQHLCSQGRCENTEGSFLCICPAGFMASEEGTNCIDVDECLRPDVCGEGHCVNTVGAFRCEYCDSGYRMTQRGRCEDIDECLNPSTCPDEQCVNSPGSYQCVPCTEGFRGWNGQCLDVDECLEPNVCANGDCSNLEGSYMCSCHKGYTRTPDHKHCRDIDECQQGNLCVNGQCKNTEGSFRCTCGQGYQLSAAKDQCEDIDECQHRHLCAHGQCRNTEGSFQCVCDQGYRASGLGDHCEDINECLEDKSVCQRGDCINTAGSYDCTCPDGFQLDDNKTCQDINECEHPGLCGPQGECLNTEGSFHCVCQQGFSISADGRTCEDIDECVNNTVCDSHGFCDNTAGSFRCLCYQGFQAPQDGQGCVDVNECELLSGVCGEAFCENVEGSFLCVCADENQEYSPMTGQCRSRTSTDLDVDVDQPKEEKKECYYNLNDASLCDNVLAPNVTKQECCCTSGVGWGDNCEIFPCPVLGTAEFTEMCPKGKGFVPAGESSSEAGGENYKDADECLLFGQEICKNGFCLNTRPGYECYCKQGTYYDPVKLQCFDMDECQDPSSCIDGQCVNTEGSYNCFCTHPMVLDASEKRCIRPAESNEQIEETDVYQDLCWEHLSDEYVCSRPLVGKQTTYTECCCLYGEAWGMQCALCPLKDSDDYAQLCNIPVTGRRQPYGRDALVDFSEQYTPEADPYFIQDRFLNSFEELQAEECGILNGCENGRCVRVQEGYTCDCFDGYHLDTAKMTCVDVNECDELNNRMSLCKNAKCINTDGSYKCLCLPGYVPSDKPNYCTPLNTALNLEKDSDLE

Molecule	Hu LTBP1-proTGFβ1 Koff, s⁻¹
SR-AB44: cycle 3 light chain-optimized antibody, lineage SR-AB23; CDRs SEQ ID NO: 178-183 (antibody, V domains shown) VH: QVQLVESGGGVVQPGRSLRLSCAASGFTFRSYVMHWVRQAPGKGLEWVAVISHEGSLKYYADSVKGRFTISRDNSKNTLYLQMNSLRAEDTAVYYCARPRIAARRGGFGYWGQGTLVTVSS VL: NFMLTQPHSVSESPGKTVTISCTRSHGNIDDNYVQWYQQRPGSSPTTVIYEDNVRPSGVPDRFSGSIDSSSNSASLTISGLKTEDEADYYCQSYDSDNQLVVFGGGTKLTVL	6e-05
SR-AB39: cycle 3 light chain-optimized antibody, lineage SR-AB22; CDRs SEQ ID NO: 148-153 (antibody, V domains shown) VH: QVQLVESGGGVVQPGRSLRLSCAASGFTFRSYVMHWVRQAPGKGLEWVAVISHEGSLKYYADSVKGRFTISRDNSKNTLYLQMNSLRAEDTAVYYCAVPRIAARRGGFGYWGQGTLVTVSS VL: NFMLTQPHSVSESPGKTVTISCTRSSGLIDDNYVQWYQQRPGSSPTTVIYEDAQRPSGVPDRFSGSIDSSSNSASLTISGLKTEDEADYYCQSYDHDEQGVVFGGGTKLTVL	6e-05
SR-AB43: cycle 3 light chain-optimized antibody, lineage SR-AB23; CDRs SEQ ID NO: 172-177 (antibody, V domains shown) VH: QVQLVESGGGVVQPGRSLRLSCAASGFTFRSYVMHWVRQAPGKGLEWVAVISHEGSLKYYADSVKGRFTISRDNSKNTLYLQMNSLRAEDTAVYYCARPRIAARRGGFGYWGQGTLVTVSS VL: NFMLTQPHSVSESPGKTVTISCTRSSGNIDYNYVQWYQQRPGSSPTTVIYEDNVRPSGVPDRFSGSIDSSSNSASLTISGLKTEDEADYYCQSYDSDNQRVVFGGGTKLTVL	0.000159
